Experimental target: Bcr/Abl fusion protein (Homo sapiens, UniProt P00519)
Sequence (P00519 whole entry, the tested form may be a part): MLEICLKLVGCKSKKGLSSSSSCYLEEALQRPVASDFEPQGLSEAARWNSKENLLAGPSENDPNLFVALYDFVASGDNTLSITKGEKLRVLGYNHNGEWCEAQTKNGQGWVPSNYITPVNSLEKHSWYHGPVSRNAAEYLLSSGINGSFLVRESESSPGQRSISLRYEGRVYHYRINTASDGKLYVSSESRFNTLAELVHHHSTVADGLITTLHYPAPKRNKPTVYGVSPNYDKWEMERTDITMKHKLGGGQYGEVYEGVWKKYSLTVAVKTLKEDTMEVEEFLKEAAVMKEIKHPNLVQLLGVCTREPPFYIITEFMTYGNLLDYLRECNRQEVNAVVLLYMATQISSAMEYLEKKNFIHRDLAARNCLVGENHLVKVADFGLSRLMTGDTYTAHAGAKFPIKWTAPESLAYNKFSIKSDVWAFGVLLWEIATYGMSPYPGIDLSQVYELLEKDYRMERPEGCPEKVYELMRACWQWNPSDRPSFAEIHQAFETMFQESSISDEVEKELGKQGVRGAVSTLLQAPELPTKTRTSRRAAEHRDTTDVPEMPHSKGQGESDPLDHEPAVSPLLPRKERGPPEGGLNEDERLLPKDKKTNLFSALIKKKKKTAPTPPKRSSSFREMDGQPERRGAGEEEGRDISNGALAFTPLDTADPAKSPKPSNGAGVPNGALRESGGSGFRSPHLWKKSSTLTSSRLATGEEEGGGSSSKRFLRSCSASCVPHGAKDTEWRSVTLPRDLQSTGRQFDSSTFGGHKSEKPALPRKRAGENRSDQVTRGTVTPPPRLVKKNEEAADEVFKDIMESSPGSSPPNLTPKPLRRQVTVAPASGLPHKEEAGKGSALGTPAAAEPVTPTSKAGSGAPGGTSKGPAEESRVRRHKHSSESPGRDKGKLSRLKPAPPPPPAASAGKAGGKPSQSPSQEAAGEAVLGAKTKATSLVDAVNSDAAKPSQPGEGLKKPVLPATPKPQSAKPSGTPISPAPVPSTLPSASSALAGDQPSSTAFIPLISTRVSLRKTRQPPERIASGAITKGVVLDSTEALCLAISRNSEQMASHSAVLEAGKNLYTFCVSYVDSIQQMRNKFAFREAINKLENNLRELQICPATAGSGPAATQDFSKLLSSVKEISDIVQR
Sequence (P11274 whole entry, further chain, the tested form may be a part): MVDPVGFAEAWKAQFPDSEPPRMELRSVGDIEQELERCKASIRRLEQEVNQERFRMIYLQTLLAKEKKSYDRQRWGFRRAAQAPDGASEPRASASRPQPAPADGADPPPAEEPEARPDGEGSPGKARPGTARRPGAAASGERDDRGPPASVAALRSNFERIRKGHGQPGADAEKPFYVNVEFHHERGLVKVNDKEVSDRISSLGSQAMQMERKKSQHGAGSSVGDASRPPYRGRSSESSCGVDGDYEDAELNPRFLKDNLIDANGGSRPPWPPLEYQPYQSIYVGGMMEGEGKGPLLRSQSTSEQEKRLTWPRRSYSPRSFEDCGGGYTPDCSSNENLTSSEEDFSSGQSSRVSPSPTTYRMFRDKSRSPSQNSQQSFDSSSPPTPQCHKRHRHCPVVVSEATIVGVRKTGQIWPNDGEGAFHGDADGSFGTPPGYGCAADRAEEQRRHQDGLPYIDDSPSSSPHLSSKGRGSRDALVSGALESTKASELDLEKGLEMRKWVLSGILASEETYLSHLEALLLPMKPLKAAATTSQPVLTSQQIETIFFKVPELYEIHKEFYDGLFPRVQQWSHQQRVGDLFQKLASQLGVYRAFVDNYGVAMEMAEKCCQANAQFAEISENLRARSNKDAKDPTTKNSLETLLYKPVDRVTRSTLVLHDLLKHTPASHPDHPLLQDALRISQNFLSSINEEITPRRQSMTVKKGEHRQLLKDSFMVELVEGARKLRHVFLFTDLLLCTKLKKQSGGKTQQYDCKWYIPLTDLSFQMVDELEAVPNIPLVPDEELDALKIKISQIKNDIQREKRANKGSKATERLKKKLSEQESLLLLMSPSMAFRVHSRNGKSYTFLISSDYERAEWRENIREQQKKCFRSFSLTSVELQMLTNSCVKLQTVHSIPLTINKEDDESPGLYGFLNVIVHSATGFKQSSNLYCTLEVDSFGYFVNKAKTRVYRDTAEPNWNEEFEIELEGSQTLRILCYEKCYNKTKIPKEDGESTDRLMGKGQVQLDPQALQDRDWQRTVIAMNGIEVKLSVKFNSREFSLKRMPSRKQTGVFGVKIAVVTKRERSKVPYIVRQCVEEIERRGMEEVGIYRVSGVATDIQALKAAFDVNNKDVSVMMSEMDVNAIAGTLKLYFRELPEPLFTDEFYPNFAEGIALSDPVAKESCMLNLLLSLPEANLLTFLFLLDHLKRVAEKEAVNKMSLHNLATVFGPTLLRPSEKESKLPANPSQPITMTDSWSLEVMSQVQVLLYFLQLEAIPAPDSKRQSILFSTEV
Test protocol: Inhibition of BCR-ABL (unknown origin) expressed in mouse BA/F3 cells assessed as decrease in cell viability after 48 hrs by trypan blue exclusion assay
Exercise: for every item that follows, state its recorded IC50.
Give bare numbers, in µM.

Provide each entry's IC50 from the list below.
1. C=CCNC1=C2C[C@@H](C)C[C@H](OC)[C@H](O)[C@@H](C)/C=C(\C)[C@H](OC(N)=O)[C@@H](OC)/C=C\C=C(/C)C(=O)NC(=CC1=O)C2=O [TANESPIMYCIN]
2. COC1=C2C[C@@H](C)C[C@H](OC)[C@H](O)[C@@H](C)/C=C(\C)[C@H](OC(N)=O)[C@@H](OC)/C=C\C=C(/C)C(=O)NC(=CC1=O)C2=O [GELDANAMYCIN]

1. 5
2. 5
